Molecular target: NFE2 (Homo sapiens, UniProt Q16621)
Construct: made in house
Sequence (Q16621 266-329 limits assumed): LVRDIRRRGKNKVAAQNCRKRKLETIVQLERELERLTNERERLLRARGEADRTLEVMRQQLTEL
Assay: Direct-binding FRET assay
Conditions: 4°C; C-terminal fluorescein design as donor, TAMRA target titrated
Where no end group is shown, it is not given here.
readout_name: Kd

Query: I am curious: what Kd value has been reported for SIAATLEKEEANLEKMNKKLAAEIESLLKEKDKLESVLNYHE [JUN-d1] ?
Result: > 1000 nM

----------
Target: MAFB (Homo sapiens)
Test: Direct-binding FRET assay
Parameters: made in house
Conditions: Kd, 23°C; N-terminal rhodamine design; mean or single
pKd: −log10 of the molar value. Where no end group is shown, it is not given here.
readout_name: pKd

Query: I am curious: what pKd value has been reported for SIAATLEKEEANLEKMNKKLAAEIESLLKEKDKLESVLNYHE [JUN-d1] ?
Result: < 6.00

----------
Target: XBP1 (Homo sapiens, UniProt P17861)
Construct: made in house
Assay: Direct-binding FRET assay
Settings: 4°C; C-terminal rhodamine design; repeat 1; read-out: Kd
Where no end group is shown, it is not given here.
readout_name: Kd

Query: I am curious: what Kd value has been reported for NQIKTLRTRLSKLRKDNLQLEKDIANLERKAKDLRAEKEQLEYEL [ATF4-d1] ?
Result: > 1 µM

----------
Target: HLF (Homo sapiens)
Construct: made in house
Sequence (Q16534 225-288 limits assumed): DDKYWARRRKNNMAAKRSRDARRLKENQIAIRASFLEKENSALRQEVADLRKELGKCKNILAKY
Experiment: Direct-binding FRET assay
Conditions: 4°C; N-terminal rhodamine design; mean or single; read-out: Kd
Where no end group is shown, it is not given here.
readout_name: Kd

Record excerpt, results attached:
{"seq": "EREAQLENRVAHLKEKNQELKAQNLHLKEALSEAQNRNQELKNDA [XBP1-d1]", "Kd": "> 1 µM"}
{"seq": "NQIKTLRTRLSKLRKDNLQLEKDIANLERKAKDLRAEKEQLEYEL [ATF4-d1]", "Kd": "> 1 µM"}

Next, consider the following sequence.
Query: I am curious: what Kd value has been reported for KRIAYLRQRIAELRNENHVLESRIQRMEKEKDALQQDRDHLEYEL [ATF5-d1] ?
Result: > 5 µM

----------
Biological target: NFE2 (Homo sapiens, UniProt Q16621)
Construct: made in house
Test: Direct-binding FRET assay
Details: 37°C; C-terminal fluorescein design as donor, TAMRA target titrated; read-out: Kd
pKd: −log10 of the molar value. Where no end group is shown, it is not given here.
readout_name: pKd

{"seq": "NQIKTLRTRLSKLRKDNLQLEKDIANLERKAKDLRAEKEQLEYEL [ATF4-d1]", "experimental_target": "NFE2 (Homo sapiens, UniProt Q16621)", "pKd": "< 6.00"}

Next, consider the following sequence.
Query: I am curious: what pKd value has been reported for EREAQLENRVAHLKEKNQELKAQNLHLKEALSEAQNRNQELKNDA [XBP1-d1] ?
Result: < 6.00

----------
Target: NFE2L2 (Homo sapiens)
Construct: made in house
Sequence (Q16236 497-560 limits assumed): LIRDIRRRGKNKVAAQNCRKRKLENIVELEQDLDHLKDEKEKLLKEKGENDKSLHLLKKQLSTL
Test: Direct-binding FRET assay
Conditions: Kd, 23°C; C-terminal rhodamine design; mean or single
pKd: −log10 of the molar value. Where no end group is shown, it is not given here.
readout_name: pKd

Query: I am curious: what pKd value has been reported for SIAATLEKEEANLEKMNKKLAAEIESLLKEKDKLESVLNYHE [JUN-d1] ?
Result: < 6.00

----------
Molecular target: NFIL3 (Homo sapiens)
Construct: made in house
Sequence (Q16649 73-136 limits assumed): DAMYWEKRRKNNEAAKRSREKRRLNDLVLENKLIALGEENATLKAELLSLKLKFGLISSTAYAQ
Test: Direct-binding FRET assay
Conditions: 23°C; C-terminal fluorescein design as donor, TAMRA target titrated
Where no end group is shown, it is not given here.
readout_name: Kd

Query: I am curious: what Kd value has been reported for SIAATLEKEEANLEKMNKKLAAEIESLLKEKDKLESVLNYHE [JUN-d1] ?
Result: > 1000 nM

----------
Biological target: NFIL3 (Homo sapiens)
Construct: made in house
Experiment: Direct-binding FRET assay
Conditions: 4°C; C-terminal rhodamine design; mean or single; read-out: Kd
Where no end group is shown, it is not given here.
readout_name: Kd

Record excerpt, results attached:
{"seq": "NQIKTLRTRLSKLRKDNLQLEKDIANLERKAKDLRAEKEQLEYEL [ATF4-d1]", "Kd": "22.8 nM"}
{"seq": "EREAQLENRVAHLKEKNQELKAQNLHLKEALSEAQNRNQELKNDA [XBP1-d1]", "Kd": "> 1000 nM"}

Next, consider the following sequence.
Query: I am curious: what Kd value has been reported for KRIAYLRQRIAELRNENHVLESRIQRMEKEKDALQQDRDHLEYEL [ATF5-d1] ?
Result: > 1000 nM

----------
Give pKd for every item shown.
Target: XBP1 (Homo sapiens, UniProt P17861)
Construct: made in house
Sequence (P17861 70-133 limits assumed): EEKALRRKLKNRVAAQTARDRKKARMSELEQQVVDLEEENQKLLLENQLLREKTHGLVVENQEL
Test: Direct-binding FRET assay
Details: 37°C; N-terminal rhodamine design; mean or single; read-out: Kd
Procedure: The direct binding assay was performed manually in 384-well plates and is similar to a previously described assay. Wells were filled with 20 μL of 1 mM TCEP-HCl. […] Briefly, the Kd of the designed peptide homodimer was experimentally determined and used with previously determined target homodimer Kd values to determine the heterodimer Kd. […] A minimum 15% change in the donor fluorescence upon titrating the acceptor peptide from 0 to 1000 nM was required for a fit to be attempted. […]
pKd: −log10 of the molar value. Where no end group is shown, it is not given here.

{"seq": "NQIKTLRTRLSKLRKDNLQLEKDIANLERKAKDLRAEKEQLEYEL [ATF4-d1]", "pKd": "< 6.00"}

Next, consider the following sequence.
Query: I am curious: what pKd value has been reported for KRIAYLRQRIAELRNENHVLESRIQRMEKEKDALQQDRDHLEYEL [ATF5-d1] ?
Result: < 5.30

----------
Biological target: BACH2 (Homo sapiens, UniProt Q9BYV9)
Sequence (Q9BYV9 646-709 limits assumed): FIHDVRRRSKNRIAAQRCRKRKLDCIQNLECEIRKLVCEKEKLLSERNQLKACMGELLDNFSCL
Assay: Direct-binding FRET assay
Parameters: made in house
Conditions: 37°C; N-terminal rhodamine design; mean or single; read-out: Kd
Where no end group is shown, it is not given here.
Give Kd for every item shown.

{"seq": "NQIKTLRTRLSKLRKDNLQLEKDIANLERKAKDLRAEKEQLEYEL [ATF4-d1]", "Kd": "> 1 µM"}

For each of the items listed, what is its Kd?
1. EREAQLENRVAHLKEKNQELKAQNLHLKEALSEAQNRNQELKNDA [XBP1-d1]
2. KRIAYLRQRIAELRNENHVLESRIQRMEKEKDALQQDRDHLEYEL [ATF5-d1]

Result:
["> 1 µM", "> 5 µM"]

----------
Target: MAFB (Homo sapiens, UniProt Q9Y5Q3)
Sequence (Q9Y5Q3 238-301 limits assumed): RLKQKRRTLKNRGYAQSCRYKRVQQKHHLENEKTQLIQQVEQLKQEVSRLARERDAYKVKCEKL
Assay: Direct-binding FRET assay
Set-up: made in house
Settings: 37°C; C-terminal fluorescein design as donor, TAMRA target titrated; read-out: Kd
pKd: −log10 of the molar value. Where no end group is shown, it is not given here.
readout_name: pKd

Query: I am curious: what pKd value has been reported for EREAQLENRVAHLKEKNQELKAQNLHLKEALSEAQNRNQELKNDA [XBP1-d1] ?
Result: < 6.00

----------
Target: NFE2 (Homo sapiens)
Construct: made in house
Sequence (Q16621 266-329 limits assumed): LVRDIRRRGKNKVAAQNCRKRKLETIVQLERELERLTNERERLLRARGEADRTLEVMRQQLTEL
Experiment: Direct-binding FRET assay
Settings: 23°C; C-terminal rhodamine design; mean or single; read-out: Kd
pKd: −log10 of the molar value. Where no end group is shown, it is not given here.
Give pKd for every item shown.

For each of the items listed, what is its pKd?
1. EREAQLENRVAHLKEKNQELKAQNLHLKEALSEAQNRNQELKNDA [XBP1-d1]
2. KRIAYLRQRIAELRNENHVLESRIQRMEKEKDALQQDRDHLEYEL [ATF5-d1]

Result:
1: < 6.00; 2: < 5.30

----------
Give Kd for every item shown.
Biological target: ATF6 (Homo sapiens, UniProt P18850)
Sequence (P18850 306-369 limits assumed): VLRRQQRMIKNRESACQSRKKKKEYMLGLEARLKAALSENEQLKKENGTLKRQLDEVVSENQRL
Assay: Direct-binding FRET assay
Design: made in house
Conditions: 37°C; N-terminal rhodamine design; mean or single; read-out: Kd
Where no end group is shown, it is not given here.

Record excerpt, results attached:
{"seq": "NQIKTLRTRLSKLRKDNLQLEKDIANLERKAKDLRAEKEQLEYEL [ATF4-d1]", "Kd": "> 1 µM"}
{"seq": "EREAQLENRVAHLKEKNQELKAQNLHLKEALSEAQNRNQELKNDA [XBP1-d1]", "Kd": "> 1 µM"}

Query: I am curious: what Kd value has been reported for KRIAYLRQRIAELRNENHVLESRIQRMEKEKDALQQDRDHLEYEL [ATF5-d1] ?
Result: > 5 µM

All figures here come from paper PMC4335062.
